test system: picornaviruses (CVB1, HRV-A2, HRV-A23, EV-68); assay: Anti-picornavirus cytopathic effect (CPE) reduction assay on HeLa H1 cells; assay type: cell-based; settings: Enterovirus B, HeLa H1, 48 h, HeLa H1 cells, 48 h, category from averaging the EC50 values from four picornaviruses (CVB1, HRV-A2, HRV-A23, EV68); read-out: EC50 values of the compounds determined in the anti-picornavirus assay
pEC50: −log10 of the molar value.
PROPERTY_LABEL: pEC50

Examples with answers:
Item under review: CC(C)CC(OCC1CCOCC1)C(=O)C(=O)NCC1CC1 (stereo not shown) [FP 130] . Reported pEC50?
5.00 to 6.00

Follow-up item: O=C(NC1CCN(C(=O)NC2CCC2)CC1)C(=O)[C@H]1CCC(=O)N1Cc1ccccc1 [FP 324]
> 6.00

Next:
Using the record for CC(C)CNC(=O)C(=O)C(C)N(C=O)CC(C)(C)C (stereo not shown) [FP 45] , report its pEC50.
> 6.00

Moving on to the next compound: O=C(NCc1ncccn1)C(=O)[C@H]1CCC(=O)N1Cc1ccccc1 [FP 298]
5.00 to 6.00

====

system: picornaviruses (CVB1, HRV-A2, HRV-A23, EV-68); test: Anti-picornavirus cytopathic effect (CPE) reduction assay on HeLa H1 cells; type: cell-based; details: Enterovirus B, HeLa H1, 48 h, HeLa H1 cells, 48 h, category from averaging the EC50 values from four picornaviruses (CVB1, HRV-A2, HRV-A23, EV68); read-out: EC50 values of the compounds determined in the anti-picornavirus assay
pEC50: −log10 of the molar value.
PROPERTY_LABEL: pEC50

Consider the reported pEC50 for these molecules:
Fill in: pEC50 of CCC1CC(=O)N(Cc2ccccc2)C1C(=O)C(=O)NC1CC1 (stereo not shown) [FP 343] is ___
> 6.00

# iterate: CC(C)NC(=O)C(=O)C(C)N(C=O)CC(C)(C)C (stereo not shown) [FP 29]
5.00 to 6.00

Follow-up item: O=C(NC1CC2(COC2)C1)C(=O)[C@H]1CCC(=O)N1Cc1ccccc1 [FP 297]
5.00 to 6.00

And what about the molecule O=C(NCC1CCCC1)C(=O)C1CCC(=O)N1CC1CC1 (stereo not shown) [FP 255] ?
5.00 to 6.00

Same for CNC(=O)C(=O)C(CC1CCC1)N(C=O)Cc1ccccc1 (stereo not shown) [FP 196]
5.00 to 6.00

COCCCN(C=O)C(CC(C)C)C(=O)C(=O)NCC1CC1 (stereo not shown) [FP 72] ?
5.00 to 6.00

Can you check CC(C)C(=O)N(C)C(C)C(=O)C(=O)NCC1CCCCC1 (stereo not shown) [FP 144] next?
5.00 to 6.00

Would you mind doing O=C(NCC1CC1)C(=O)C1CCC(=O)N1CC1CCCCC1 (stereo not shown) [FP 202] as well?
> 6.00

Quick one: COc1ccccc1N(C=O)C(CC(C)C)C(=O)C(=O)NCc1cccc(Cl)c1 (stereo not shown) [FP 13]
> 6.00

# context switch: different molecule, same pEC50
# get_value(readout='pEC50', item= O=C(NCCN1CCCCC1=O)C(=O)[C@H]1CCC(=O)N1Cc1ccccc1 [FP 292] )
5.00 to 6.00

====

// reported pEC50 per item
tested on: picornaviruses (CVB1, HRV-A2, HRV-A23, EV-68); test: Anti-picornavirus cytopathic effect (CPE) reduction assay on HeLa H1 cells; format: cell-based; conditions: Enterovirus B, HeLa H1, 48 h, HeLa H1 cells, 48 h, category from averaging the EC50 values from four picornaviruses (CVB1, HRV-A2, HRV-A23, EV68); read-out: EC50 values of the compounds determined in the anti-picornavirus assay
pEC50: −log10 of the molar value.

Can you share its pEC50? I mean this molecule: "CC(C)NC(=O)[C@H]1C[C@@H](NC(=O)C(=O)[C@H]2CCC(=O)N2Cc2ccccc2)C1"
5.00 to 6.00

What about "CNC(=O)C(=O)[C@H]1CCC(=O)N1Cc1ccc(Cl)cc1" ?
5.00 to 6.00

// same read-out, input: C[C@H]1CC(=O)N(Cc2ccccc2)[C@@H]1C(=O)C(=O)NCC1CC1 (single isomer, unassigned)
5.00 to 6.00

// switching to the query molecule
Would you kindly share the measured pEC50 for COC(=O)CNC(=O)C(=O)C(C)N(C=O)Cc1ccccc1 (stereo not shown) ?
< 5.00

====

system: picornaviruses (CVB1, HRV-A2, HRV-A23, EV-68); experiment: Anti-picornavirus cytopathic effect (CPE) reduction assay on HeLa H1 cells; format: cell-based; details: Enterovirus B, HeLa H1, 48 h, HeLa H1 cells, 48 h, category from averaging the EC50 values from four picornaviruses (CVB1, HRV-A2, HRV-A23, EV68); read-out: EC50 values of the compounds determined in the anti-picornavirus assay
pEC50: −log10 of the molar value.
Recorded pEC50 values for a group of compounds are listed next.

Please review the entries below; each comes with its answer.
Looking for the measured pEC50 of O=C(NC1CC(F)C1)C(=O)[C@H]1CCC(=O)N1Cc1ccccc1 (stereo partly drawn) , can you help?
> 6.00

Thanks! And CC1(NC(=O)C(=O)C2CCC(=O)N2Cc2ccccc2)CC1 (stereo not drawn) ?
5.00 to 6.00

Next record, please: "O=C(NC1CC(F)(F)C1)C(=O)[C@H]1CCC(=O)N1Cc1ccccc1"
> 6.00

***
Entry under review: CC(NS(=O)(=O)c1ccc(F)cc1)C(=O)C(=O)NCC1CC1 (stereo not drawn) . Reported pEC50?
5.00 to 6.00

What do you get for COc1ccccc1N(C=O)C(C)C(=O)C(=O)N[C@H](C)C(C)C (stereo partly drawn) ?
5.00 to 6.00

What do you have for O=C(NCC1CC1)C(=O)C1CCCC(=O)N1Cc1ccccc1 (stereo not drawn) ?
5.00 to 6.00

Do the same for C[C@@H]1CC(=O)N(Cc2ccccc2)[C@H]1C(=O)C(=O)NCC1CC1 (single isomer, unassigned) please
> 6.00

Would you kindly repeat that for CC(C(=O)C(=O)NCC1CCCCC1)N(C=O)[C@H]1CC[C@@H](NC(=O)OC(C)(C)C)CC1 (stereo partly drawn) ?
< 5.00

Cc1ccc(CN2C(=O)CCC2C(=O)C(=O)NC2CC2)s1 (stereo not drawn) ?
5.00 to 6.00

====

Target sequence: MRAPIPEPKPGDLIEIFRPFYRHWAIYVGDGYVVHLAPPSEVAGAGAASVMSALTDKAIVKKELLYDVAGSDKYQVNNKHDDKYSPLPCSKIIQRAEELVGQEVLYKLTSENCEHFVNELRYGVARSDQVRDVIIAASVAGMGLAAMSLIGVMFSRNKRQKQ
pIC50: −log10 of the molar value.
PROPERTY_LABEL: pIC50

Solved cases below.
Any idea what its pIC50 is? The compound is O=CN(Cc1ccccc1)[C@@H](Cc1c[nH]cn1)C(=O)C(=O)NCC1CC1 [FP 119]
> 6.00

Would you mind doing O=C(NCCO)C(=O)C1CCC(=O)N1Cc1ccc(Cl)cc1 (centres unmarked) [FP 256] as well?
> 6.00

Record: O=C(NC1CCN(C(=O)NC2CCC2)CC1)C(=O)[C@H]1CCC(=O)N1Cc1ccccc1 [FP 324]
> 6.00

Follow-up entry: O=C(NC1CCCC1)C(=O)C1CCC(=O)N1CC1CC1 (centres unmarked) [FP 254]
> 6.00

Field: next compound
Tell me the measured pIC50 of O=C(NC1CC(F)(F)C1)C(=O)[C@H]1CCC(=O)N1Cc1ccccc1 [FP 268] , please.
> 6.00

====

tested on: picornaviruses (CVB1, HRV-A2, HRV-A23, EV-68); experiment: Anti-picornavirus cytopathic effect (CPE) reduction assay on HeLa H1 cells; type: cell-based; conditions: Enterovirus B, HeLa H1, 48 h, HeLa H1 cells, 48 h, category from averaging the EC50 values from four picornaviruses (CVB1, HRV-A2, HRV-A23, EV68); read-out: EC50 values of the compounds determined in the anti-picornavirus assay
pEC50: −log10 of the molar value.
PROPERTY_LABEL: pEC50

Notebook: pull reported pEC50 for picornaviruses (CVB1, HRV-A2, HRV-A23, EV-68), entry Cc1ccncc1C(=O)NC(C)C(=O)C(=O)NCC1CCCCC1 (stereo not shown) [FP 209]
5.00 to 6.00

One more molecule: CC(NC(=O)c1ccccc1)C(=O)C(=O)NCC1CCCCC1 (stereo not shown) [FP 179]
> 6.00

Can you check CC(NS(=O)(=O)c1ccccc1)C(=O)C(=O)NCC1CC1 (stereo not shown) [FP 187] next?
5.00 to 6.00

Continuing:
Write down the reported pEC50 of Cc1ccccc1C(=O)NC(C)C(=O)C(=O)NCC1CC1 (stereo not shown) [FP 156] , test system: picornaviruses (CVB1, HRV-A2, HRV-A23, EV-68).
5.00 to 6.00

Next entry: COc1ccccc1N(C=O)C(C)C(=O)C(=O)NCc1c(C)cccc1C (stereo not shown) [FP 99]
5.00 to 6.00

Proceed to CC(C(=O)C(=O)NCCOc1ccc(C(N)=O)cc1)N(C=O)C1CCCCC1 (stereo not shown) [FP 114]
< 5.00

Then what about the molecule Cc1ccccc1S(=O)(=O)NC(C)C(=O)C(=O)NCC1CC1 (stereo not shown) [FP 190] ?
5.00 to 6.00

Same thing, different molecule: CC(C(=O)C(=O)NCC1CCCCC1)N(C=O)C1CCCCC1 (stereo not shown) [FP 52]
> 6.00

Another molecule: CC(NC(=O)c1ccccc1F)C(=O)C(=O)NCC1CC1 (stereo not shown) [FP 164]
5.00 to 6.00

Moving on to O=CN(CC(=O)C(=O)NCC1CC1)Cc1ccccc1 [FP 193]
> 6.00
